Molecular target: T1, soluble human FcRn (shFcRn) (human, UniProt P55899 24-297; P61769 21-119)
T1 construct: Biotinylated for the ELISA, amine-coupled to a CM5 chip for SPR; also called biotinylated shFcRn
T1 sequence (P55899 24-297 limits assumed, chain 1 of 2): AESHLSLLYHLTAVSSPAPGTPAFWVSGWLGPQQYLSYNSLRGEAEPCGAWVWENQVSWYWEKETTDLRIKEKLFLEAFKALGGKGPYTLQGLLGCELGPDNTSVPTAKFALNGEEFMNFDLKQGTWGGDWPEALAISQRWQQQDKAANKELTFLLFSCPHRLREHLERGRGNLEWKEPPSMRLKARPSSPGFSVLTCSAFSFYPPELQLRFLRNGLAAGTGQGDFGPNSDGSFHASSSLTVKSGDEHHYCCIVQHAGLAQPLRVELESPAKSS
T1 sequence (P61769 21-119 limits assumed, chain 2 of 2): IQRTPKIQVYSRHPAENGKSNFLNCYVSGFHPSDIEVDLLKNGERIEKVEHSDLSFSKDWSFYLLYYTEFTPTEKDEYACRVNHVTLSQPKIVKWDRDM
Assay: SPR pH 6
Bridge positions count the residues as written; N and C are the ends. Square brackets hold non-standard residues; d marks the D form. Ends that are not written are not given here. Pen = CC(C)(S)[C@H](N)C(=O)O
assayEndpoint: Kd (nM)
Give the number; nM is assumed, so skip it.

>  <binder>
QRF[Pen]TGHF[dF][dP]LYPCNGP-NH2 (disulfide 4-14; N-terminus assumed; SMILES CC(C)C[C@@H]1NC(=O)[C@H]2CCCN2C(=O)[C@@H](Cc2ccccc2)NC(=O)[C@H](Cc2ccccc2)NC(=O)[C@H](Cc2c[nH]cn2)NC(=O)CNC(=O)[C@H]([C@@H](C)O)NC(=O)[C@@H](NC(=O)[C@H](Cc2ccccc2)NC(=O)[C@H](CCCNC(=N)N)NC(=O)[C@@H](N)CCC(N)=O)C(C)(C)SSC[C@@H](C(=O)N[C@@H](CC(N)=O)C(=O)NCC(=O)N2CCC[C@H]2C(N)=O)NC(=O)[C@@H]2CCCN2C(=O)[C@H](Cc2ccc(O)cc2)NC1=O) [Peptide No. 150]

>  <Kd (nM)>
720

$$$$
>  <binder>
QRF[Pen]TGHFGGLYPCNGP-NH2 (disulfide 4-14; N-terminus assumed; SMILES CC(C)C[C@@H]1NC(=O)CNC(=O)CNC(=O)[C@H](Cc2ccccc2)NC(=O)[C@H](Cc2c[nH]cn2)NC(=O)CNC(=O)[C@H]([C@@H](C)O)NC(=O)[C@@H](NC(=O)[C@H](Cc2ccccc2)NC(=O)[C@H](CCCNC(=N)N)NC(=O)[C@@H](N)CCC(N)=O)C(C)(C)SSC[C@@H](C(=O)N[C@@H](CC(N)=O)C(=O)NCC(=O)N2CCC[C@H]2C(N)=O)NC(=O)[C@@H]2CCCN2C(=O)[C@H](Cc2ccc(O)cc2)NC1=O) [Peptide No. 32]

>  <Kd (nM)>
250

$$$$

In the following, a different binder is considered.
Any idea what Kd was measured for QRF[Pen]TGHFG[dF]LYPCNGP-NH2 (disulfide 4-14; N-terminus assumed; SMILES CC(C)C[C@@H]1NC(=O)[C@@H](Cc2ccccc2)NC(=O)CNC(=O)[C@H](Cc2ccccc2)NC(=O)[C@H](Cc2c[nH]cn2)NC(=O)CNC(=O)[C@H]([C@@H](C)O)NC(=O)[C@@H](NC(=O)[C@H](Cc2ccccc2)NC(=O)[C@H](CCCNC(=N)N)NC(=O)[C@@H](N)CCC(N)=O)C(C)(C)SSC[C@@H](C(=O)N[C@@H](CC(N)=O)C(=O)NCC(=O)N2CCC[C@H]2C(N)=O)NC(=O)[C@@H]2CCCN2C(=O)[C@H](Cc2ccc(O)cc2)NC1=O) [Peptide No. 44] ?
1700
